target: adenosine A2B receptor (Homo sapiens (Human)); assay: Adenosine receptor activity assay (Table 1), A2B activity; type: biochemical; conditions: A2A activity to A2B activity (A2A/A2B)
Ratio for assorted molecules
recorded.metric: Ratio

| molecule | observed.measurement |
| --- | --- |
| O=C(c1nc(NC(CO)c2cccnc2)nc2ccsc12)N1CCCC1 (centres unmarked) | 27.81 |
| O=C(NCc1ccc(C(F)(F)F)nc1)c1nc(NCc2ccc(C(F)(F)F)nc2)nc2ccsc12 | 1.00 |
| C[C@H](Nc1nc(C(=O)N2CCC(C(=O)OC(C)(C)C)C2)c2sccc2n1)c1cncc(F)c1 (some centres unmarked) | 6.35 |
| N[C@H]1CCN(C(=O)c2nc(NCc3cc(F)cc(F)c3)nc3ccsc23)C1 | 11.56 |
| Cc1cc2nc(N[C@@H](C)c3cncc(F)c3)nc(C(=O)N3CC[C@H](O)C3)c2s1 | 197.12 |
| C[C@H](Nc1nc(C(=O)N2CC[C@H](O)C2)c2sccc2n1)c1cncc(F)c1 | 73.68 |
| CN(C(=O)OC(C)(C)C)C1CN(C(=O)c2nc(NCc3cncc(F)c3)nc3ccsc23)C1 | 2.57 |
| CO[C@H]1CCN(C(=O)c2nc(N[C@@H](C)c3cncc(F)c3)nc3cc(C)sc23)C1 | 83.47 |
| C[C@H](Nc1nc(C(=O)NCCc2ccc(Cl)cc2)c2sccc2n1)c1cncc(F)c1 | 7.44 |
| COc1ccc(CNc2nc(C(=O)N3CCCC3)c3sccc3n2)cc1OC | 1.00 |
| CC(NC(=O)c1nc(NC(C)c2cccnc2)nc2ccsc12)c1cccnc1 (centres unmarked) | 44.44 |
| COc1cc(F)cc(CNc2nc(C(=O)N3CC(C)(O)C3)c3sccc3n2)c1 | 11.51 |
| C[C@H](Nc1nc(C(=O)N2CCN(CCCc3ccccc3)CC2)c2sccc2n1)c1cccnc1 | 0.92 |
| O=C(NCc1ccccn1)c1nc(NCc2ccccn2)nc2ccsc12 | 2.02 |
| NC(=O)c1cncc(CNc2nc(C(=O)N3CCCC3)c3sccc3n2)c1 | 2.76 |
| Cc1cc2nc(N[C@@H](C)c3ccccn3)nc(C(=O)N3CCCC3)c2s1 | 18.24 |
| COCC(Nc1nc(C(=O)NC2CC2)c2sccc2n1)c1cccnc1 (centres unmarked) | 3.91 |

---

target: adenosine A2B receptor (Homo sapiens (Human), UniProt P29275); experiment: Adenosine receptor activity assay (Table 1), A2B activity; format: biochemical; conditions: A2A activity to A2B activity (A2A/A2B)
Sequence (P29275 whole entry): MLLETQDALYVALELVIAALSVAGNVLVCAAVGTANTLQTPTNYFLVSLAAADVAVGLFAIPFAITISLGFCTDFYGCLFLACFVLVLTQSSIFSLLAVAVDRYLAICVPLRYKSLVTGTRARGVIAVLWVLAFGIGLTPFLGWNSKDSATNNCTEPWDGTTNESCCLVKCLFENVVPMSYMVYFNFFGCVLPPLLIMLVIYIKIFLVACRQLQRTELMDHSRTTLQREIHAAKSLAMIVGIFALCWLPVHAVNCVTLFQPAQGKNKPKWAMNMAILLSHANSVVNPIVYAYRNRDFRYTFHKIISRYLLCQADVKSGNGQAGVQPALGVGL
If the reported Ratio equals or exceeds 20, assign Met. If not, assign Not met.

| molecule | cat |
| --- | --- |
| O=C(c1nc(NCc2cccc(F)c2)nc2ccsc12)N1CCN(CCCc2ccccc2)CC1 | Not met |
| C[C@H](Nc1nc(C(=O)N2CC(F)(F)C2)c2sccc2n1)c1cccnc1 | Not met |
| Cc1cc2nc(N[C@@H](C)c3cccnc3)nc(C(=O)N3CCCC3)c2s1 | Met |
| COCCNC(=O)c1nc(N[C@@H](C)c2ccccn2)nc2ccsc12 | Not met |
| O=C(NC[C@H]1CCCN1)c1nc(NCc2cncc(F)c2)nc2ccsc12 | Not met |
| C[C@H](Nc1nc(C(=O)NCc2ccc(OCC3CC3)nc2)c2sccc2n1)c1ccccn1 | Not met |
| C[C@H](Nc1nc(C(=O)N2CCNC2)c2sccc2n1)c1cncc(F)c1 | Met |
| C[C@H](Nc1nc(C(=O)N2CCC2)c2sccc2n1)c1cncc(Cl)c1 | Met |
| O=C(c1nc(NCc2cncc(F)c2)nc2ccsc12)N1CC(F)(F)C1 | Met |
| CC(C)NC(=O)c1nc(N[C@@H](C)c2ccccn2)nc2ccsc12 | Not met |
| Cc1cc2nc(N[C@@H](C)c3cccnc3)nc(C(=O)N3CC[C@H](O)C3)c2s1 | Met |
| CC(=O)N[C@H]1CCN(C(=O)c2nc(N[C@@H](C)c3cncc(F)c3)nc3ccsc23)C1 | Met |
| C[C@H](Nc1nc(C(=O)N2CCCCC2)c2sccc2n1)c1cccnc1 | Met |
| C[C@H](O)CNC(=O)c1nc(N[C@@H](C)c2ccccn2)nc2ccsc12 | Not met |
| C[C@H](CO)NC(=O)c1nc(N[C@@H](C)c2ccccn2)nc2ccsc12 | Not met |
| COC1CN(C(=O)c2nc(N[C@@H](C)c3ccccn3)nc3cc(C)sc23)C1 | Met |
| O=C(NC1CC(O)C1)c1nc(NCc2cncc(F)c2)nc2ccsc12 (centres unmarked) [Example Z183] | Met |

---

LM CLint for assorted compounds
assay: Liver microsome intrinsic clearance (LM CLint), human; assay type: in vitro ADME
recorded.metric: LM CLint (μL/min/mg/protein)

| smiles.data | observed.measurement |
| --- | --- |
| CC(=O)Nc1ccc(CCNC(=O)c2nc(N[C@@H](C)c3cncc(F)c3)nc3ccsc23)cc1 | 228.45 |
| Cc1cc2nc(N[C@@H](C)c3cncc(F)c3)nc(C(=O)N3CC(N)C3)c2s1 | 5.77 |
| Cc1cc2nc(N[C@@H](C)c3cncc(F)c3)nc(C(=O)N3CC[C@H](N)C3)c2s1 | 0.15 |
| COc1cccc(CNC(=O)c2nc(N[C@@H](C)c3ccccn3)nc3c(C)csc23)n1 | 82.93 |
| C[C@H](Nc1nc(C(=O)N2CC(CN)C2)c2sccc2n1)c1cncc(F)c1 | 0.69 |
| C[C@H](Nc1nc(C(=O)N2CC(N)C2)c2sccc2n1)c1cncc(F)c1 | 2.64 |
| Cc1cc2nc(N[C@@H](C)c3cncc(F)c3)nc(C(=O)NCC[C@H]3CCNC3)c2s1 | 4.85 |
| C[C@H](Nc1nc(C(=O)N2CC(NC(=O)C3CC3)C2)c2sccc2n1)c1cncc(F)c1 | 6.17 |
| Cc1csc2c(C(=O)N3CCC3)nc(N[C@@H](C)c3cncc(F)c3)nc12 | 82.97 |
| COc1ccc([C@@H](C)Nc2nc(C(=O)NCc3ccc(OC)nc3)c3sccc3n2)cc1 | 35.20 |

---

pIC50 for assorted compounds
target: UniProt:P29274; assay: Adenosine receptor activity assay (Table 1), A2A activity; type: biochemical; details: read-out: Ave A2A cAMP IC50
Sequence (P29274 whole entry): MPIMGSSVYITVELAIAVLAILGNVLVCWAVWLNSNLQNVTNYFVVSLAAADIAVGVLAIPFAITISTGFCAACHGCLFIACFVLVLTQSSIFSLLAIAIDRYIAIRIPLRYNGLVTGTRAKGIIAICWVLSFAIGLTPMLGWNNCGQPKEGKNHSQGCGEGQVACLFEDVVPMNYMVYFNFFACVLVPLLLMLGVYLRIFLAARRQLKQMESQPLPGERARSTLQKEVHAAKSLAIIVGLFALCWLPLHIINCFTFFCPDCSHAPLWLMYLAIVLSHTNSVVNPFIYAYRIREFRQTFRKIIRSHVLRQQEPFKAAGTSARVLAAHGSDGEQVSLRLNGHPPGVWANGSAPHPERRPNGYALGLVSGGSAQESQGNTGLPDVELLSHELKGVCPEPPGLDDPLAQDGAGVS
pIC50: −log10 of the molar value.

| compound | pIC50 |
| --- | --- |
| C[C@H](O)CNC(=O)c1nc(NCc2cncc(C(F)(F)F)c2)nc2ccsc12 | < 6.30 |
| O=C(c1nc(NCc2cccc(O)n2)nc2ccsc12)N1CCCC1 | < 6.30 |
| COC1CN(C(=O)c2nc(N[C@@H](C)c3cccnc3)nc3cc(C)sc23)C1 | 7.00 to 7.30 |
| C[C@H](Nc1nc(C(=O)N2CC[C@H](O)C2)c2sccc2n1)c1ccccn1 | < 6.30 |
| COC[C@H]1CCN(C(=O)c2nc(N[C@@H](C)c3ccccn3)nc3ccsc23)C1 | 6.30 to 7.00 |
| COc1ccc(CNC(=O)c2nc(NCc3cccnc3C)nc3ccsc23)cn1 | 6.30 to 7.00 |
| C[C@H](Nc1nc(C(=O)N2CCC(C(=O)O)C2)c2sccc2n1)c1cncc(F)c1 (some centres unmarked) | < 6.30 |
| O=C(c1nc(NCc2cncc(F)c2)nc2ccsc12)N1CCCC1 | 6.30 to 7.00 |

---

target: adenosine A2B receptor (Homo sapiens (Human), UniProt P29275); assay: Adenosine receptor activity assay (Table 1), A2B activity; format: biochemical; details: A2A activity to A2B activity (A2A/A2B)
Ratio strictly less than 30 = rule met. Otherwise rule not met.

| compound | cat |
| --- | --- |
| O=C(c1nc(NCc2cncc(F)c2)nc2ccsc12)N1CCC1 | rule not met |
| Cc1cc2nc(N[C@@H](C)c3cncc(F)c3)nc(C(=O)N3CC[C@@H](CO)C3)c2s1 | rule not met |
| C[C@H](Nc1nc(C(=O)N[C@H](C)c2cccnc2)c2sccc2n1)c1cccnc1 | rule met |
| Cc1cc2nc(N[C@@H](C)c3cncc(F)c3)nc(C(=O)NC[C@@H](C)O)c2s1 | rule not met |
| Cc1cc2nc(N[C@@H](C)c3cncc(F)c3)nc(C(=O)N3CCCC3)c2s1 | rule not met |
| COCC(Nc1nc(C(=O)N2CC[C@H](O)C2)c2sccc2n1)c1cccnc1 (some centres unmarked) | rule met |
| C[C@H](O)CNC(=O)c1nc(N[C@@H](C)c2cncc(F)c2)nc2ccsc12 | rule not met |

---

assay: Hepatocyte intrinsic clearance, human; format: in vitro ADME; conditions: hepatocytes
hepatocyte CLint for assorted compounds

| smiles.data | hepatocyte CLint |
| --- | --- |
| Cc1cc2nc(N[C@@H](C)c3cncc(F)c3)nc(C(=O)N3CC(O)C3)c2s1 | 9.44 µL/min/1e6 cells |
| CO[C@H]1CCN(C(=O)c2nc(N[C@@H](C)c3cncc(F)c3)nc3cc(C)sc23)C1 | 23.8 µL/min/1e6 cells |
| Cc1cc2nc(N[C@@H](C)c3cncc(F)c3)nc(C(=O)NC[C@H](C)O)c2s1 | 16.4 µL/min/1e6 cells |
| Cc1cc2nc(N[C@@H](C)c3ccccn3)nc(C(=O)N3CC[C@@H](O)C3)c2s1 | 5.35 µL/min/1e6 cells |
| Cc1cc2nc(N[C@@H](C)c3cncc(F)c3)nc(C(=O)N3CC[C@H](O)C3)c2s1 | 4.53 µL/min/1e6 cells |
| C[C@H](Nc1nc(C(=O)N2CC[C@H](F)C2)c2sccc2n1)c1cncc(F)c1 | 44.5 µL/min/1e6 cells |
| Cc1cc2nc(N[C@@H](C)c3cccnc3)nc(C(=O)N3CC[C@@H](O)C3)c2s1 | 5.45 µL/min/1e6 cells |
| C[C@H](Nc1nc(C(=O)N2CCCC2)c2sccc2n1)c1cncc(Cl)c1 | 72.7 µL/min/1e6 cells |
| CNc1cc2nc(N[C@@H](C)c3cncc(F)c3)nc(C(=O)N3CCCC3)c2s1 | 20.3 µL/min/1e6 cells |
| Cc1cc2nc(N[C@@H](C)c3ccccn3)nc(C(=O)N3CC[C@H](O)C3)c2s1 | 4.11 µL/min/1e6 cells |
| Cc1cc2nc(N[C@@H](C)c3cccnc3)nc(C(=O)N3CCC3)c2s1 | 26.5 µL/min/1e6 cells |
| CNc1cc2nc(N[C@@H](C)c3cncc(F)c3)nc(C(=O)N3CCC3)c2s1 | 15.8 µL/min/1e6 cells |
| CNc1cc2nc(N[C@@H](C)c3cncc(F)c3)nc(C(=O)N3CC[C@@H](O)C3)c2s1 | 16.1 µL/min/1e6 cells |
| C[C@H](Nc1nc(C(=O)N2CC[C@H](O)C2)c2sc(C(F)(F)F)cc2n1)c1cccnc1 | 19.5 µL/min/1e6 cells |
| C[C@H](Nc1nc(C(=O)N2CC[C@H](CO)C2)c2sccc2n1)c1cncc(F)c1 | 15.6 µL/min/1e6 cells |
| Cc1cc2nc(N[C@@H](C)c3cncc(F)c3)nc(C(=O)NC[C@@H](C)O)c2s1 | 14.8 µL/min/1e6 cells |
| C[C@H](Nc1nc(C(=O)N2CC(O)C2)c2sccc2n1)c1cncc(F)c1 | 6.78 µL/min/1e6 cells |
| Cc1cc2nc(N[C@@H](C)c3cccnc3)nc(C(=O)N3CC[C@H](O)C3)c2s1 | 3.47 µL/min/1e6 cells |
| Cc1cc2nc(N[C@@H](C)c3cccnc3)nc(C(=O)N3CCCC3)c2s1 | 59.6 µL/min/1e6 cells |
| Cc1cc2nc(N[C@@H](C)c3cncc(F)c3)nc(C(=O)N3CC[C@@H](O)C3)c2s1 | 11.9 µL/min/1e6 cells |

Source: patent US11254686B1
